# Test system: SF-295 CNS
# method: NCI tumour cell line growth inhibition, 48 h; in the data active = GI50 below about 0.43 µM; inactive = the rest
Use one of these outcomes when replying: label 1 = active, label 0 = inactive

Reference set (6 entries):
COc1ccccc1/C=C/C(=O)c1ccccc1; label 0
CCOc1cccc(/C=N/NC(=O)C(=O)Nc2cccc(C(F)(F)F)c2)c1O; label 1
OCCNc1ncnc2c1ncn2Cc1cccc(COc2cccc(OCc3cccc(Cn4cnc5c(NCCO)ncnc54)c3)c2)c1; label 0
COc1ccc2cc(-c3c(-c4ccncc4)nc(-c4ccc(S(C)(=O)=O)cc4C)n3C)ccc2c1; label 0
CCOc1cc(/C=N\Nc2nnc(C)n2N)c(C)cc1N(CCCl)CCCl; label 0
O=C(O)c1ccc2c(c1)CCCC(c1ccc(Cl)cc1Cl)=C2c1ccc(O[C@H]2CCN(CCCF)C2)cc1; label 0

Req: Called result for COc1cc2c(=O)n(CCN)c3c4cc5c(cc4ccc3c2cc1OC)OCO5
Resp: label 1

Req: Called result for Cc1cc(S(=O)(=O)NC#N)c(S/C(=N\Nc2ccc([N+](=O)[O-])cc2)c2ccc(Cl)cc2)cc1Cl
Resp: label 0

Req: Called result for O=C1NC(=S)S/C1=C(/C=C(\CC(=O)c1ccccc1)c1ccc(Cl)cc1)c1ccccc1
Resp: label 0

Req: Called result for COc1ccc(Cn2c3c(cc(OS(=O)(=O)C(F)(F)F)c2=O)Cc2ccccc2-3)cc1
Resp: label 0

---

Below, each entry is listed alongside its reported TGI.
# Tested on: CCRF-CEM leukemia
# method: NCI tumour cell line growth inhibition, 48 h

Consider the reported TGI for these compounds:
COc1ccc(N2C(=O)[C@H]3CC(C)c4c([nH]c5ccccc45)[C@H]3C2=O)cc1 (stereo not given in full); 46.9 µM
Cc1ccc(C(=O)N/N=C(\N=Nc2ccccc2)c2ccc(N(C)C)cc2)cc1; > 100 µM
CC1CCC2(NC1)OC1CC3C4CC=C5CC(OC6OC(CO)C(OC7OC(C)C(O)C(O)C7O)C(O)C6OC6OC(C)C(O)C(O)C6O)CCC5(C)C4CCC3(C)C1C2C (stereo not given); > 55.7 µM
CCP(=O)(OC)C1=CCN(C(=O)OCC[Si](C)(C)C)CC1 (stereo not given); > 100 µM

Req: Supply TGI value. Item: Cc1ccc2nc(-c3ccc(N(C)C)c(Br)c3)cn2c1
Resp: > 100 µM

---

# Test system: MOLT-4 leukemia
# method: NCI tumour cell line growth inhibition, 48 h; in the data active = GI50 below about 0.43 µM; inactive = the rest
Use one of these outcomes when replying: true (1) (active), false (0) (inactive)

Reference set (5 entries):
CC[C@H](Nc1nc(C)nc(N)c1C#N)c1nc2cccc(NCc3ccc(C(=O)NO)cc3)c2c(=O)n1-c1ccccc1; false (0)
COc1ccc2c(c1)/C(=C\c1c(Cl)[nH]c3ccc(OC)cc13)C(=O)N2; false (0)
COc1ccccc1/C=C/C(=O)c1ccccc1; false (0)
Fc1cc2[nH]ncc2c2c3c(c(-c4cn[nH]c4C(F)(F)F)nc12)C1CCC3C1 (configuration not stated); false (0)
Cn1c2c(c3ccc(Cl)c(Cl)c31)C(C#N)C1(CCNCC1)NC2=O (configuration not stated); false (0)

Req: Called result for COC(=O)C1CCc2sc3ncnc(Nc4cn[nH]c4C(=O)Nc4ccc(CN5CCN(C)CC5)cc4)c3c21 (configuration not stated)
Resp: true (1)

Req: Called result for CCCOc1ccc2nc(NC(=O)OC)[nH]c2c1
Resp: true (1)

Req: Called result for Cc1cc(S(=O)(=O)NC#N)c(S/C(=N\Nc2ccc([N+](=O)[O-])cc2)c2ccc(Cl)cc2)cc1Cl
Resp: false (0)

Req: Called result for COc1cc(-c2n/c(=C\c3c(O)[nH]c4ccc(Cl)cc34)cc3c2=Nc2ccccc2-3)ccc1F
Resp: false (0)

Req: Called result for O=C(O)C1CCCCC1C(=O)O.[NH-]C1CCC1.[NH2-].[Pt+2] (configuration not stated)
Resp: false (0)

Req: Called result for Cc1ccc2nc(-c3ccc(N(C)C)c(Br)c3)cn2c1
Resp: false (0)

Req: Called result for C/C=C1\NC(=O)[C@H]2CSSCCC=C[C@H](CC(=O)N[C@H](C(C)C)C(=O)N2)OC(=O)[C@H](C(C)C)NC1=O
Resp: true (1)

---

Below, each entry is listed alongside its reported TGI.
# Test system: MOLT-4 leukemia
# method: NCI tumour cell line growth inhibition, 48 h

O=C1NC2CCCCC2N=C1CC(=O)c1ccc(Br)cc1 (stereo not given); > 100 µM
CN1CC[C@]2(C)c3ccc(O)cc3CC3CCCC1C32C (stereo not given in full); > 100 µM
CC(=O)OCC(OC(C)=O)C(OC(C)=O)C(OC(C)=O)C(=O)CNn1c(-c2ccccc2Cl)nc2ccccc2c1=O (stereo not given); > 100 µM
COc1cc2cc(C(=O)N3C[C@H](CCl)c4c3cc(N)c3ccccc43)[nH]c2c(OC)c1OC; 0.246 µM
CSc1nc(NC(C)C)c2c(n1)Sc1nc3ccccc3n1N=C2; > 100 µM

Req: Supply TGI value. Item: COC(=O)Cc1ccc2c(cnn2-c2ccccc2)c1OC
Resp: > 10 µM

Req: Supply TGI value. Item: Cn1c(=O)c(-c2ccccc2)c(O)c2ccccc21
Resp: > 100 µM

Req: Supply TGI value. Item: COC(=O)[C@@H]1CCCCC[C@H]2C(CO)=C(C)C(=O)C12 (stereo not given in full)
Resp: > 100 µM

Req: Supply TGI value. Item: COC(=O)[C@]12CCC(C)[C@H](C)[C@H]1C1=CCC3[C@@]4(C)CC[C@H](OC(C)=O)C(C)(C)C4CC[C@@]3(C)C1(C)C(O)C2 (stereo not given in full)
Resp: > 100 µM

Req: Supply TGI value. Item: COC(=O)c1nc(Cl)nc(Cl)c1Cl
Resp: 32.9 µM

---

# Tested on: OVCAR-4 ovarian
# method: NCI tumour cell line growth inhibition, 48 h
readout: TGI (µM)
Kindly provide the numeric value in µM only, without the unit symbol.

Consider the reported TGI for these compounds:
O=C(O)C1CCCCC1C(=O)O.[NH-]C1CCC1.[NH2-].[Pt+2] (stereo not given); 29.7
Cc1sc2nc3c4ccccc4c(NCCCN(C)C)nn3c(=O)c2c1C; 24.9
COc1cc(-c2n/c(=C\c3c(O)[nH]c4ccc(Cl)cc34)cc3c2=Nc2ccccc2-3)ccc1F; 3.48
COc1cc2c(=O)n(CCN)c3c4cc5c(cc4ccc3c2cc1OC)OCO5; 2.55
CC(C)C(CC(=O)OCC(CO)OC(=O)CC(C(C)C)C(C)C)C(C)C (stereo not given); 33.4
Cc1cc(S(=O)(=O)NC#N)c(S/C(=N\Nc2ccc([N+](=O)[O-])cc2)c2ccc(Cl)cc2)cc1Cl; 75
CN(C)CCNC(=O)c1cc(Cl)cc2ccc(-c3ccccc3)nc12; 13.7

Read the next record carefully.
Req: Supply TGI value. Item: C=C1C(=O)O[C@H]2[C@H]1CC/C(COC(=O)c1cc3cc(Cl)ccc3[nH]1)=C\CC[C@@]1(C)O[C@@H]21
Resp: 2.72

---

# Test system: COLO 205 colon
# method: NCI tumour cell line growth inhibition, 48 h
readout: GI50

O=C(O)C1CCCCC1C(=O)O.[NH-]C1CCC1.[NH2-].[Pt+2] (stereo not given); 10.3 µM

Req: Supply GI50 value. Item: CCn1c2ccc(O)cc2c2c(C)c3c[n+](C)ccc3c(C)c21
Resp: 3.03 µM

Req: Supply GI50 value. Item: COc1ccc2cc(-c3c(-c4ccncc4)nc(-c4ccc(S(C)(=O)=O)cc4C)n3C)ccc2c1
Resp: 8.25 µM

Req: Supply GI50 value. Item: CN1C(=O)N(C)C2C1NN=c1s/c(=C\c3ccc(F)cc3)c(=O)n12 (stereo not given)
Resp: 2.51 µM

Req: Supply GI50 value. Item: CCn1c(-c2nonc2N)nc2c(C#CC(C)(C)O)nc(OCCNC)cc21
Resp: 4.84 µM

---

# Tested on: SF-539 CNS
# method: NCI tumour cell line growth inhibition, 48 h
Below, each entry is listed alongside its reported GI50.

Cc1c(C(=O)NCCN2CCOCC2)cn2ncnc(Oc3ccc(NC(=O)Nc4ccc(Cl)c(C(F)(F)F)c4)cc3)c12; 508 nM
O=C(O)c1ccc2c(c1)CCCC(c1ccc(Cl)cc1Cl)=C2c1ccc(O[C@H]2CCN(CCCF)C2)cc1; 14100 nM

Req: Quote SF-539 CNS GI50 for entry Cn1c2c(c3ccc(Cl)c(Cl)c31)C(C#N)C1(CCNCC1)NC2=O (stereo not drawn) .
Resp: 2030 nM

---

# Tested on: KM12 colon
# method: NCI tumour cell line growth inhibition, 48 h
readout: TGI (µM)
Kindly provide the numeric value in µM only, without the unit symbol.

Consider the reported TGI for these molecules:
CNCCn1c(=O)c2cc(OC)c(OC)cc2c2ccc3cc4c(cc3c21)OCO4; 4.98
C[C@]12CCC(=O)[C@@H](CCC3=CC(=O)C=CC3=O)[C@@H]1CCC2=O; 32
CN(C)CC1CCC/C(=C\c2ccc(OC(=O)c3ccc(Cl)cc3)cc2)C1=O (stereo unspecified); 5.9
OC1(c2ccccc2)OC(C#Cc2ccccc2)(c2ccccc2)c2ccccc21 (stereo unspecified); 2.99

Read the next record carefully.
Req: Supply TGI value. Item: CCCCOc1ccc(OCCCCCCCCCC[N+](C)(C)C)cc1
Resp: 2.97
